tested-on: T1, RGS12, O14924
T1 sequence (O14924 17-108, limits assumed, looked up): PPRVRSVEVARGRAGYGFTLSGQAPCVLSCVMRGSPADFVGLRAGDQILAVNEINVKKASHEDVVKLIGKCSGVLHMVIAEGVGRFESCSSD
test-name: holdup assay
Set-up: key: below the threshold = too weak to quantify, mostly under pKd 3.1 to 4
condition-summary: plain residues with an end cap or a label only (N-terminal biotin on a linker: ttds)
measured-attribute: pKd
// no unit, no text: just the number

pKd lookup needed for RLPKIKETTV [FRMPD4, Q14CM0] , thanks.
4.61

pKd lookup needed for RLQRRRETQV [HPV18-E6, P06463] , thanks.
4.35
